Test system: NCI-H23 lung
assay name: NCI tumour cell line growth inhibition, 48 h; in the data active = GI50 below about 0.43 µM; inactive = the rest
Answer with one of the outcomes active, inactive

QUERY: Can you look up the reported call for O=C(O)c1ccc([S-])cc1.[Au+].c1ccc(CN2[CH-]N(Cc3ccccc3)C(c3ccccc3)=C2c2ccccc2)cc1 for me?
RESULT: active

QUERY: Kindly provide the recorded test outcome for the following molecule: COc1ccc2c(c1)c1nc3cc(C)c(C)cc3nc1n2CCN(C)C
RESULT: inactive

QUERY: Per the assay record, what outcome was assigned to O=C(NCCN1CCC(O)CC1)c1cc2c(o1)C(=O)c1ccccc1C2=O ?
RESULT: active

QUERY: Which outcome did this test record for the molecule CCOc1ccc2nc(-c3cccc(OCC(=O)NC(C)C)c3)nc(Nc3ccc(-c4cn[nH]c4)cc3)c2c1 ?
RESULT: inactive

QUERY: Can you look up the reported call for COc1ccc2c(c1)CCc1[nH]nc(-c3cc(OC)c(OC)c(OC)c3)c1-2 for me?
RESULT: active

QUERY: Each molecule tested received a call. Report the one for C[n+]1c2ccccc2c(Nc2ccc(NS(=O)(=O)CCCCN=C(N)N)cc2)c2ccc(N)cc21 .
RESULT: active

QUERY: Assay outcome for Cc1cccc(Cl)c1NC(=O)c1cnc(Nc2cc(N3CCOCC3)cc(N3CCOCC3)c2)s1 : what was it?
RESULT: inactive

QUERY: How was CC1(C)CCC[C@]2(C)c3cc(O)ccc3CC[C@@H]12 classified in this test?
RESULT: inactive

QUERY: State the result this test recorded for O=C1C(Cl)=C(Nc2cccc(O)c2)C(=O)N1Cc1ccc(Cl)cc1 .
RESULT: inactive

---

Would you mind telling me the reported TGI of each entry?
Test system: ACHN renal
assay name: NCI tumour cell line growth inhibition, 48 h
Where a SMILES comes first, the peptide text is derived from it. [ ]: non-standard residue; d: D form. pGlu = O=C1CC[CH](C(=O)O)N1

Notebook: CC1CC(=O)Nc2ccc(N=NN(C)C)cc2N1C=O (stereo not given) , TGI read as > 100 µM

# compound Fc1cccc(CSc2ncnc3c2ncn3C2CCCS2)c1 (stereo not given) ; its TGI = 39.7 µM

TGI recorded for this compound, COc1ccc([I+]c2ccccc2)cc1 , is > 100 µM

Reported TGI ( CC(NC(=O)C(Cc1cnc[nH]1)NC(=O)C1CCC(=O)N1)C(N)=O (stereo not drawn) ([pGlu]-His-Ala-NH2; configuration not given here) ) = > 100 µM

Lookup result for CCC/C(Cl)=N\OC(=O)Nc1ccc(F)c([N+](=O)[O-])c1 ; measured TGI: 18.1 µM

For O=C1c2ccccc2-c2nnc(-c3ccc(Cl)cc3)cc21 the compound record lists TGI as > 10 µM

Briefly, TGI measured for COc1ccc(-c2cn(-c3cccc(C(=O)/C=C/c4ccc(O)c(OC)c4)c3)c(=O)[nH]2)cc1 : 6.22 µM

Data point: CN1C(=O)C(=Cc2cn(Cc3ccccc3)c3ccccc23)C(=O)N(C)C1=O ; TGI = > 100 µM

So for COc1nc2ccc(CNc3ccc(C(=O)O)cc3)cc2nc1OC , the logged TGI turned out to be > 10 µM

Briefly, TGI measured for O=C(O)c1ccc2c3c(ncnc13)-c1ccccc1C2=O : > 100 µM
